Tested on: SF-539 CNS
Test: NCI tumour cell line growth inhibition, 48 h; in the data active means GI50 below about 0.43 µM; inactive means the rest
Use one of these outcomes when replying: true (active), false (inactive)

Worked examples, 5 molecules total:
molecule	assigned.category
COc1ccc(-c2nc(-c3nc4ccc(C(F)(F)F)cc4[nH]3)c3ccccn23)cc1	false
CCCCN1CCN(c2ccc3nc(-c4ccc5nc(-c6ccc(OCC)c(OCC)c6)[nH]c5c4)[nH]c3c2)CC1	false
COc1cc(C2C3=C(COC3=O)Nc3cc4c(cc32)OCO4)cc2c1OCO2 (centres undefined)	true
COc1ccc(/C(=N/O)c2cc(OC)c(OC)c(OC)c2)c(OC)c1N	false
Oc1c(CNCCNCc2cc(Cl)cc(Cc3ccccc3)c2O)cc(Cl)cc1Cc1ccccc1	true

Given N#C/C(=C\c1cccc2cnccc12)N1N=NC2C=CC=CC21 (centres undefined) , state the outcome it received in this test.
false

Assay result, entry COc1ccc(Oc2cc(NCCC(F)(F)F)c3ncc(-c4ccc(C(=O)NC5CC5)c(C)c4)n3n2)c(F)c1F — outcome?
false

Status in this test for CN1CCN(c2ccc(C(=O)Nc3cccc(C#Cc4cccc5[nH]nc(N)c45)c3)cc2C(F)(F)F)CC1 ?
false

Test call, this molecule: CC(C)(C)OC(=O)NCCCCCCCCCCn1c2c(c3ccccc3c1=O)C(=O)c1ccccc1-2
false
